# system.under.test: T1, CTLA-4-hFc (immunogen A; hFc-labeled CTLA-4 extracellular domain protein) (human, UniProt P16410 36-161)
# T1 construct: range 36-161; Made in HEK293 cells, purified on protein A; also called CLTA-4-hFc; CTLA-4 protein; not shown: human IgG Fc fragment (hFc) of the pCpC vector
# T1 sequence (looked up): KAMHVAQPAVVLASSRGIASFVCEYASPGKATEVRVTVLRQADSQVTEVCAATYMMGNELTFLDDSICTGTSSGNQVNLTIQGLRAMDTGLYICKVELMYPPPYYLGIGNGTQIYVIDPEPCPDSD
# assay.procedure: ELISA, coated CTLA-4-hFc, competitor biotin-B7.1-hFc
In this section, each of the binders is paired with its reported Inhibition rate (%) at 0.091 nM.

Solved cases below.
{"columns": ["binder", "quantity.measured", "recorded.measurement"],
 "data": [
  ["40C4C6 (chimeric antibody purified from hybridoma supernatant) (antibody, V domains shown, also called mAb09; mAb009) VH: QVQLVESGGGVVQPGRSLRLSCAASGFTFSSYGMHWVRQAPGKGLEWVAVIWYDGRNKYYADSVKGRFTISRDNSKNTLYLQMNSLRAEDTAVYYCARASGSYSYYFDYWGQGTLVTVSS VL: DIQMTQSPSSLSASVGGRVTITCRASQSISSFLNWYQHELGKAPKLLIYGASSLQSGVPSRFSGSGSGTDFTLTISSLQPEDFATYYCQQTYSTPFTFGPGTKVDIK", "Inhibition rate (%) at 0.091 nM", "12.7%"],
  ["31C12F3 (chimeric antibody purified from hybridoma supernatant) (antibody, V domains shown, also called mAb010) VH: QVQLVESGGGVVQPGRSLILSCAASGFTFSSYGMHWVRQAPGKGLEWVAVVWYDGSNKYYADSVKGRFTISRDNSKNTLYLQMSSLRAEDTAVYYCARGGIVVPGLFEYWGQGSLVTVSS VL: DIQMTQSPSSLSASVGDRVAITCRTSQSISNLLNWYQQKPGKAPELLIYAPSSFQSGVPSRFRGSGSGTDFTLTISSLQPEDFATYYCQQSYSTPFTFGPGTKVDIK", "Inhibition rate (%) at 0.091 nM", "1.7%"],
  ["92C8B6 (chimeric antibody purified from hybridoma supernatant) (antibody, V domains shown, also called mAb42; mAb042) VH: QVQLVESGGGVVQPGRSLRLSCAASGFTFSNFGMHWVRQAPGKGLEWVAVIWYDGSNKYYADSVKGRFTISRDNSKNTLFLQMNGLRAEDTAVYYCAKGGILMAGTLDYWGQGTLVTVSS VL: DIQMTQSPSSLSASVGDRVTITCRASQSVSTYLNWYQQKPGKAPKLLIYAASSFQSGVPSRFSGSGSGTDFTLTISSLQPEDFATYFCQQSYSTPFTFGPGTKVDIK", "Inhibition rate (%) at 0.091 nM", "8%"]
]}

Fill blank: measured Inhibition rate (%) at 0.091 nM of the binder 97A8D1 (chimeric antibody purified from hybridoma supernatant) (antibody, V domains shown, also called mAb49; mAb049) VH: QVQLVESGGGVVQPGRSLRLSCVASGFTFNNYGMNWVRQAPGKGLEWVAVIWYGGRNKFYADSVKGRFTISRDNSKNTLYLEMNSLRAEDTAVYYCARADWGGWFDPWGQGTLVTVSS VL: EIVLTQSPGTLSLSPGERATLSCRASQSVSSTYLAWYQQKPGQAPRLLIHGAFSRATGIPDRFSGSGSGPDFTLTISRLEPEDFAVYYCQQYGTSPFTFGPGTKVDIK is ____.
-1%
